Taken from patent US10813941B2.

# Test system: P. falciparum K1
# measurement_notes: P. falciparum growth inhibition assay, strain K1
# Assay type: cell-based, Plasmodium falciparum
# condition_set: Plasmodium falciparum; P. falciparum K1 (chloroquine and sulfadoxine-pyrimethamine resistant), 72 h
# Description: P. falciparum strains were obtained through the MR4 as part of the BEI Resources Repository, NIAID NIH (www.mr4.org): Plasmodium falciparum 3D7 (wild-type, WT), Plasmodium falciparum K1 (MRA-159; chloroquine and sulfadoxine-pyrimethamine resistant) deposited by D E Kyle, and Plasmodium falciparum IPC 5202 Battambang Cambodia 2011 (MRA-1240; chloroquine and artemisinin resistant) deposited by Didier Menard at the Institut Pasteur du Cambodge. […]
observed_property: IC50 (nM)
Give the value, in units of nM, as a plain number.

// recorded IC50 for O=CN(O)CCCP(=O)(O)O [FSM, fosmidomycin, reference compound] : 837

* * *

# System: P. falciparum Battambang
# measurement_notes: P. falciparum growth inhibition assay, strain Battambang
# Assay type: cell-based, Plasmodium falciparum
# condition_set: Plasmodium falciparum; P. falciparum Battambang (chloroquine and artemisinin resistant), 72 h
# From the text: P. falciparum strains were obtained through the MR4 as part of the BEI Resources Repository, NIAID NIH (www.mr4.org): Plasmodium falciparum 3D7 (wild-type, WT), Plasmodium falciparum K1 (MRA-159; chloroquine and sulfadoxine-pyrimethamine resistant) deposited by D E Kyle, and Plasmodium falciparum IPC 5202 Battambang Cambodia 2011 (MRA-1240; chloroquine and artemisinin resistant) deposited by Didier Menard at the Institut Pasteur du Cambodge. […]
observed_property: pIC50
Please keep in mind that pIC50 is minus log10 of the molar concentration; only the number is needed.

pIC50 for P. falciparum Battambang with input O=CN(O)CCCP(=O)(O)O [FSM, fosmidomycin, reference compound] equals 6.06

* * *

# System: P. falciparum 3D7
# measurement_notes: P. falciparum growth inhibition assay (PicoGreen, 72 h), strain 3D7
# Format: cell-based, Plasmodium falciparum
# condition_set: parent strain 3D7 (WT) in had1 comparison, FIG. 3, mean±SEM
observed_property: pIC50
Please keep in mind that pIC50 is minus log10 of the molar concentration; only the number is needed.

// recorded pIC50 for `CC(=O)N(O)C/C=C/P(=O)(OCOC(=O)C(C)(C)C)OCOC(=O)C(C)(C)C` : 7.70

* * *

# Tested on: P. falciparum had1 (PfHad1 loss-of-function strain)
# measurement_notes: microbe, parasite or virus in culture
# Format: cell-based, Plasmodium falciparum
# condition_set: had1 mutant (FSM-resistant), FIG. 3, mean±SEM; read-out: IC50
observed_property: IC50 (nM)
Give the value, in units of nM, as a plain number.

// recorded IC50 for `CC(=O)N(O)C/C=C/P(=O)(OCOC(=O)C(C)(C)C)OCOC(=O)C(C)(C)C` : 76.5

* * *

# Tested on: P. falciparum 3D7
# measurement_notes: P. falciparum growth inhibition assay (PicoGreen, 72 h), strain 3D7
# Format: cell-based, Plasmodium falciparum
# condition_set: P. falciparum 3D7 (pan-sensitive, lab adapted), asynchronous, 72 h, mean±SEM
observed_property: IC50 (µM)
Give the value, in units of µM, as a plain number.

// recorded IC50 for `CC(=O)N(O)C/C=C/P(=O)(OCOC(=O)C(C)(C)C)OCOC(=O)C(C)(C)C` : 0.0183
